- procedure-text: UWB1.289_BRCA1 ovarian cancer growth, cell-based, BGB or cisplatin combinations (AID 1671459)
- test-parameters: UWB1.289 BRCA1 ovarian carcinoma, drug combinations, cisplatin combination, concentration series, at 5 µM, stronger effect = higher value
Can you tell me inhibition for the items I'm about to list?
Please respond with the number in % and leave the unit unwritten.

Recorded result, O=c1[nH]cnc2c1ncn2C1CCC(CO)O1 (stereo not given) , inhibition: 5.72

Recorded result, COc1cccc2c1C(=O)c1c(O)c3c(c(O)c1C2=O)CC(O)(C(=O)CO)CC3OC1CC(N)C(OC2CCCCO2)C(C)O1 (stereo not given) , inhibition: 96.5

Recorded result, CCC(Sc1nnc2c3ccccc3n(CC)c2n1)C(=O)Nc1ccccc1OC (stereo not given) , inhibition: 11.1

Recorded result, C=C(NC(=O)C(=C)NC(=O)c1csc(C2=NC3c4csc(n4)C4NC(=O)c5csc(n5)C(C(C)(O)C(C)O)NC(=O)C5CSC(=N5)/C(=C/C)NC(=O)C(C(C)O)NC(=O)c5csc(n5)C3(CC2)NC(=O)C(C)NC(=O)C(=C)NC(=O)C(C)NC(=O)C(C(C)CC)NC2C=Cc3c(C(C)O)cc(nc3C2O)C(=O)OC4C)n1)C(N)=O (stereo not given) , inhibition: 94.4

Recorded result, C[C@@H]1COCCN1c1cc(C2(S(C)(=O)=O)CC2)nc(-c2cccc3[nH]ccc23)n1 , inhibition: 117

Recorded result, C=C(C)C1CCC2(C(=O)O)CCC3(C)C(CCC4C5(C)CCC(O)C(C)(C)C5CCC43C)C12 (stereo not given) , inhibition: -5.38

Recorded result, NC(=O)c1cccc2cn(-c3ccc(C4CCCNC4)cc3)nc12 (stereo not given) , inhibition: 23.7

Recorded result, Cn1cnc2[nH]c(=O)[nH]c(=O)c21 , inhibition: 4.95

Recorded result, CC(C)c1ccc(-c2cc(=O)c3ccccc3o2)cc1 , inhibition: 32.9

Recorded result, COc1ccccc1S(=O)(=O)Nc1ccc2c(c1)CN(C)C(=O)N2 , inhibition: 55.6

Recorded result, O=C(CCSc1nc2ccccc2c(=O)[nH]1)NC1CCC(c2nnc(-c3ccccc3)o2)CC1 (stereo not given) , inhibition: -16.8

Recorded result, CC(C)OC(=O)[C@H](C)NP(=O)(OC[C@H]1O[C@@H](n2ccc(=O)[nH]c2=O)C(C)(F)[C@@H]1O)Oc1ccccc1 (stereo not given in full) , inhibition: 12.8

Recorded result, O=C(CCCCCCC(=O)NO)NO , inhibition: 38.6

Recorded result, C[C@H](NC(=O)c1ccccc1N=Cc1c(O)ccc2ccccc12)c1ccccc1 , inhibition: 4.86

Recorded result, NC(=O)c1cccc2[nH]c(-c3ccc(C4CCCN4)cc3F)nc12 (stereo not given) , inhibition: 69.9

Recorded result, CC(C)(C#N)c1ccc(N2C(=O)OCc3cnc4ccc(-c5cnc6ccccc6c5)cc4c32)cc1 , inhibition: 99.8

Recorded result, CC(C)(O)[C@H]1CC[C@@](C)(C2[C@@H](O)C[C@@]3(C)[C@@H]4C[C@H](O)C5C(C)(C)[C@@H](O)CCC56CC46CC[C@]23C)O1 (stereo not given in full) , inhibition: 7.75

Recorded result, Cc1cc(C)c(Nc2ccnc(Nc3ccc(C#N)cc3)n2)c(C)c1 , inhibition: 45

Recorded result, O=C(CCCCCCC(=O)Nc1ccc(I)cc1)NO , inhibition: 105

Recorded result, CCC1(O)C(=O)OCc2c1cc1n(c2=O)Cc2cc3cc(O)ccc3nc2-1 (stereo not given) , inhibition: 102

Recorded result, CC1CN(c2c(F)c(N)c3c(=O)c(C(=O)O)cn(C4CC4)c3c2F)CC(C)N1 (stereo not given) , inhibition: 7.13

Recorded result, Nc1ccn(C2CCC(CO)O2)c(=O)n1 (stereo not given) , inhibition: -7.33

Recorded result, Cc1ccc(NC(=O)CCCCCC(=O)Nc2ccccc2N)cc1 , inhibition: 51.6

Recorded result, O=c1[nH]c(=O)n(C2CC(O)C(CO)O2)cc1I (stereo not given) , inhibition: -6.29

Recorded result, C[n+]1ccc(-c2c3nc(c(-c4cc[n+](C)cc4)c4ccc([nH]4)c(-c4cc[n+](C)cc4)c4nc(c(-c5cc[n+](C)cc5)c5ccc2[nH]5)C=C4)C=C3)cc1 , inhibition: -6.54
